System: A549/ATCC NSCLC
Assay summary: NCI-60 one-dose screen, 48 h
Test parameters: 10 µM unless noted
Description: Growth inhibition of the A549/ATCC human Non-Small Cell Lung tumor cell line is measured as a screen for anti-cancer activity. Cells are grown in 96 well plates and exposed to the test compound for 48 hours. Compounds are tested at a single concentration, which is 10^-5 M for most compounds. The reported endpoint is percent growth (GI% or GIPRCNT), where numbers from 0 - 100% represent growth inhibition, and numbers from -100% - 0 represent cell death. […]
This is part of a sample that, as a whole, favours compounds with a hit. Of some 83,000 tested, about 20% had one in any assay. The source made the active and inactive calls. The calls were made as follows: active = growth percent below 10; inactive = the rest.
Entry note: the call must match one of true = active, false = inactive

Please review the entries below; each comes with its answer.
1. O=C(N=Nc1c(O)[nH]c2ccc(F)cc12)c1cc2ccccc2[nH]1 ... false
2. COc1ccc(C(=O)c2cc(C)c(OC)c(C)c2)c(OC)c1O ... false

### Prompt Dear colleague, could you share the recorded outcome for O=C1Nc2c(ccc(Cl)c2Cl)/C1=C/c1ccccn1 when you have a moment?
### Response false

### Prompt // same read-out, input: NC(=O)c1cccc(-n2ccc3cc(NC(=O)Nc4cc(C(F)(F)F)cc(C(F)(F)F)c4)ccc32)n1
### Response false

### Prompt // same read-out, input: CSc1nc(O)c(-c2ccccc2)c(=O)[nH]1
### Response false

### Prompt // same read-out, input: Cc1cc2cc3cc(C)c(N)cc3[n+](C)c2cc1N
### Response true

### Prompt // same read-out, input: CC[C@H](CC[C@@H](C)[C@H]1CC[C@H]2[C@@H]3CC=C4C[C@@H](OCCc5nn[nH]n5)CC[C@]4(C)[C@H]3CC[C@]12C)C(C)C
### Response false

### Prompt // same read-out, input: NC(=O)C1(N2CCCCC2)CCN(CCCC(=O)c2ccc(F)cc2)CC1
### Response false

### Prompt // same read-out, input: CC(=O)O[C@H]1CC[C@@]2(C)[C@@H](CC[C@@H]3[C@@H]2CC[C@@]2(C)[C@H]3CC[C@]2(O)C(C)=O)C1
### Response false

* * *

Catalogue of compounds with associated growth
System: KM12 colon
Assay summary: NCI-60 one-dose screen, 48 h (100 = growth as untreated, 0 = no growth, -100 = all killed)
Test parameters: 10 µM unless noted
The panel holds about 83,000 compounds, 20% with a hit somewhere; the sample as a whole holds those more often.
Write it as a number; the unit % goes unstated.

# example entries with known answers
1. CC(=O)Nc1ccc(C(=O)Nc2cc(-c3ccccc3)ccc2N)cc1 ... 73.2
2. CC[C@H](CC[C@@H](C)[C@H]1CC[C@H]2[C@@H]3CC=C4C[C@@H](OCCc5nn[nH]n5)CC[C@]4(C)[C@H]3CC[C@]12C)C(C)C ... 100
3. Clc1cc(Cl)cc(N2N=C(c3cccc(Nc4ccncc4)c3)CC2c2ccccc2)c1 (stereo not drawn) ... -8.16
4. CCN1C(=O)N(CC)C2NC(SC)=NC21 (stereo not drawn) ... 102
5. CCn1ccnc1C(=O)/C=C/c1ccc(CC(=O)Nc2ccc(F)cc2)cc1 ... -14.3

### Prompt Suppose we examine the compound C=C(C)[C@@H]1CC[C@]2(C(=O)O)CC[C@]3(C)[C@H](CC[C@@H]4[C@@]5(C)C[C@@H](CC#Cc6ccc(Br)cc6)C(=O)C(C)(C)[C@@H]5CC[C@]43C)[C@@H]12 ; what growth value has been reported?
### Response 40.3

### Prompt // same read-out, input: COc1cc(C(=O)/C=C/c2c(C)n([O-])c3ccc(Cl)cc3[n+]2=O)cc(OC)c1OC
### Response 73.1

* * *

Catalogue of compounds with associated growth
System: NCI-H522 lung
Assay summary: NCI-60 one-dose screen, 48 h (100 = growth as untreated, 0 = no growth, -100 = all killed)
Test parameters: 10 µM unless noted
Compounds without any hit were thinned out: in the full panel of roughly 83,000, 20% have a hit.
Write it as a number; the unit % goes unstated.

1. CCCCCOc1ccc(/C=N/Nc2cc(C)nc3ccc(Br)cc23)cc1 ... 1.99
2. Clc1ccc2c(c1)c(-c1ccccc1)nc1nncn12 ... 93.1
3. COc1ccc(C(O)c2cc3c(N)c(C(=O)Nc4cccc(OC)c4)sc3nc2C)cc1 (stereo unspecified) ... -27.4
4. C(=N\Nc1ncc(-c2cc3cc4c(cc3o2)OCO4)s1)/c1c[nH]c2ccccc12 ... -42.2

### Prompt Suppose we examine the compound CCC(C)C(N)C(=O)NNc1n[nH]c(=S)n1N (stereo unspecified) ; what growth value has been reported?
### Response 89

### Prompt // same read-out, input: C/C(=C(/c1ccccc1)c1ccc(OCC(O)CN2CCOCC2)cc1)c1ccccc1 (stereo unspecified)
### Response 73.3

* * *

Tested on: SK-MEL-28 melanoma
Assay summary: NCI-60 one-dose screen, 48 h (100 = growth as untreated, 0 = no growth, -100 = all killed)
Test parameters: 10 µM unless noted
Compounds without any hit were thinned out: in the full panel of roughly 83,000, 20% have a hit.
Endpoint: growth (%)
Write it as a number; the unit % goes unstated.

# example entries with known answers
1) Cc1n[nH]c(C)c1-c1c(C)n[nH]c1C ... 11.9
2) NC(=S)N/N=C(\c1ccc(Cl)cc1)C1CC1 ... 98.7
3) Nc1nc(SN=Nc2ccc(S(N)(=O)=O)cc2)c2[nH]cnc2n1 ... 15.6
4) CC1CCN(C(=O)OCc2nc3nc(Cl)nc(N4CCOCC4)c3[nH]2)CC1 ... -86.4

### Prompt Form: Entry = O=C1CCCCCCCCC(O)C(O)CCCC(c2cccs2)O1 (stereo not given) | System = SK-MEL-28 melanoma | growth = ____
### Response 123

* * *

System: 786-0 renal
Assay summary: NCI-60 one-dose screen, 48 h (100 = growth as untreated, 0 = no growth, -100 = all killed)
Test parameters: 10 µM unless noted
The panel holds about 83,000 compounds, 20% with a hit somewhere; the sample as a whole holds those more often.
# if value of growth reaches 90%, tag satisfied; if it stays below, tag not satisfied

Please review the entries below; each comes with its answer.
1) C=C1C(=O)O[C@H]2[C@H]1CC/C(COC(=O)/C=C/c1c[nH]c3ccccc13)=C\CC[C@@]1(C)O[C@@H]21 ... not satisfied
2) O=C(/C=C/c1ccc[nH]1)c1ccc(-n2ccc(C(F)(F)F)n2)cc1 ... not satisfied
3) FC(F)(F)c1cccc(Nc2ccccc2)c1 ... satisfied
4) CCc1c(Nc2ccc(C)cc2)nc(N)[nH]c1=O ... satisfied
5) NC(=O)c1cccc(-n2ccc3cc(NC(=O)Nc4cc(C(F)(F)F)cc(C(F)(F)F)c4)ccc32)n1 ... not satisfied

### Prompt Evaluate CC1(C)[C@H](O)CC[C@]2(C)[C@@H]1CC[C@@]13C[C@@H](CC[C@H]12)[C@@](O)(CO)C3 : growth at minimum 90%?
### Response not satisfied

### Prompt // same read-out, input: COc1ccc(/C=C/C(=O)c2ccc(Nc3ncnc4ccccc34)cc2)cc1OC
### Response not satisfied

### Prompt // same read-out, input: COc1ccc(C(=O)c2cc3c(N)c(C(=O)Nc4cccc5ccccc45)sc3nc2C)cc1
### Response not satisfied

### Prompt // same read-out, input: O=C(CCN1CCCC1)Nc1ccc2c(Nc3ccccc3)c3ccccc3nc2c1
### Response not satisfied

* * *

Tested on: HOP-92 NSCLC
Assay summary: NCI-60 one-dose screen, 48 h
Test parameters: 10 µM unless noted
About 83,000 compounds went through this panel and 20% of them were active in at least one assay; those are over-represented in the sample as a whole. Active and inactive are the calls of the source. The calls were made as follows: active = growth percent below 10; inactive = the rest.
Entry note: the call must match one of True = active, False = inactive

1) COc1cccc2cc(-c3cc4ccccc4[nH]3)/c(=N/C(=S)Nc3ccc(C)cc3)oc12 ... True
2) Nc1nnc2cc(Cl)ccc2n1 ... False
3) CCN1C(=O)/C(=c2\sc3n(c2=O)NC2C(N=3)N(CC)C(=O)N2CC)c2ccccc21 (configuration not stated) ... False
4) Clc1nc(Cl)c2ncn(CC3(Cn4cnc5c(Cl)nc(Cl)nc54)COC3)c2n1 ... True

### Prompt Dear colleague, could you share the recorded outcome for COc1ccc(C2CC(c3cccc(Nc4ccncc4)c3)=NN2c2ccc(Cl)cc2)cc1 (configuration not stated) when you have a moment?
### Response False

### Prompt // same read-out, input: O=C(/C=C/c1ccc[nH]1)c1ccc(-n2ccc(C(F)(F)F)n2)cc1
### Response False

### Prompt // same read-out, input: O=C1c2ccccc2C(=O)c2c(NCCN=Cc3ccccc3O)cccc21
### Response False

### Prompt // same read-out, input: O=S(=O)(NCCCNc1nccc(-c2c(-c3cccc(O)c3)nc3occn23)n1)c1ccc(F)cc1
### Response False

### Prompt // same read-out, input: COc1ccc(C(O)c2cc3c(N)c(C(=O)Nc4ccc(Cl)cc4)sc3nc2C)cc1 (configuration not stated)
### Response False

### Prompt // same read-out, input: O=C1Nc2c(ccc(Cl)c2Cl)/C1=C/c1ccc(O)cc1
### Response False

Recorded values, source PubChem BioAssay (NCI).
